# measurement_protocol: Solubility of compound of Chemical Formula 1 in various solvents
# Type: physicochemical
# experimental_setup: aqueous with cosolvent or surfactant or cyclodextrin; Acetic acid-water (1:1), 50° C.; read-out: Solubility
quantity_kind: solubility

solubility reading for O=S1(=O)CCN(Cc2cc(NC3CCOCC3)c3[nH]c(-c4ccccc4)cc3c2)CC1 [compound of Chemical Formula 1] : 75.6 mg/mL

---

# measurement_protocol: Solubility test of sulfate (Crystalline form III) in various solvents
# Format: physicochemical
# experimental_setup: organic solvent or mixture, thermodynamic from solid; EtOH, 25° C.; read-out: Solubility
quantity_kind: solubility

Just so you know, measured solubility for O=S1(=O)CCN(Cc2cc(NC3CCOCC3)c3[nH]c(-c4ccccc4)cc3c2)CC1 [Sulfate] came out at < 2000 µg/mL
